The origin of these recorded values is the supplement of paper PMC9112550.

tested on: Escherichia coli TOP10; assay: shrunken log2 fold change of peptide-encoding DNA abundance (4.5 h post-induction vs induction); higher = less antimicrobial activity (less host growth inhibition); conditions: time post-induction: 4.5 h; library: site-saturation at positions 5, 18, 19, 20;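 also: peptides expressed intracellularly from a pBAD plasmid library in pooled LB shake-flask culture, induced with 0.3% L-arabinose, DNA abundance read by NGS, three biological replicates, DESeq2 with apeglm shrinkage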
Property label: shrunken log2 fold change
Reply with just the number.

Exercise: Returns the measured shrunken log2 fold change for the input sequence. Input: RRIRMRPPRLPRPRPRPTVMPRP
Solution: 0.563

Exercise: Returns the measured shrunken log2 fold change for the input sequence. Input: RRIRGRPPRLPRPRPRPAQKPRP
Solution: 0.721

Exercise: Returns the measured shrunken log2 fold change for the input sequence. Input: RRIRDRPPRLPRPRPRPAYRPRP
Solution: -0.0687

Exercise: Returns the measured shrunken log2 fold change for the input sequence. Input: RRIRVRPPRLPRPRPRPPSEPRP
Solution: -0.124

Exercise: Returns the measured shrunken log2 fold change for the input sequence. Input: RRIRMRPPRLPRPRPRPPYRPRP
Solution: 0.00408

Exercise: Returns the measured shrunken log2 fold change for the input sequence. Input: RRIRTRPPRLPRPRPRPWSGPRP
Solution: -0.187

Exercise: Returns the measured shrunken log2 fold change for the input sequence. Input: RRIRSRPPRLPRPRPRPPERPRP
Solution: 0.0652

Exercise: Returns the measured shrunken log2 fold change for the input sequence. Input: RRIRRRPPRLPRPRPRPHWTPRP
Solution: -0.12

Exercise: Returns the measured shrunken log2 fold change for the input sequence. Input: RRIRWRPPRLPRPRPRPPVPPRP
Solution: 0.469

Exercise: Returns the measured shrunken log2 fold change for the input sequence. Input: RRIRDRPPRLPRPRPRPDYAPRP
Solution: 0.016

Exercise: Returns the measured shrunken log2 fold change for the input sequence. Input: RRIRFRPPRLPRPRPRPENWPRP
Solution: 0.0986

Exercise: Returns the measured shrunken log2 fold change for the input sequence. Input: RRIRDRPPRLPRPRPRPCGDPRP
Solution: 0.0915

Exercise: Returns the measured shrunken log2 fold change for the input sequence. Input: RRIRHRPPRLPRPRPRPFQDPRP
Solution: 0.0239

Exercise: Returns the measured shrunken log2 fold change for the input sequence. Input: RRIRPRPPRLPRPRPRPVDCPRP
Solution: 0.00936

Exercise: Returns the measured shrunken log2 fold change for the input sequence. Input: RRIRKRPPRLPRPRPRPNPEPRP
Solution: 0.0292

Exercise: Returns the measured shrunken log2 fold change for the input sequence. Input: RRIRIRPPRLPRPRPRPIMYPRP
Solution: -0.0494

Exercise: Returns the measured shrunken log2 fold change for the input sequence. Input: RRIRVRPPRLPRPRPRPGTQPRP
Solution: -0.183

Exercise: Returns the measured shrunken log2 fold change for the input sequence. Input: RRIRCRPPRLPRPRPRPQVMPRP
Solution: -0.464

Exercise: Returns the measured shrunken log2 fold change for the input sequence. Input: RRIRLRPPRLPRPRPRPHICPRP
Solution: -0.162

Exercise: Returns the measured shrunken log2 fold change for the input sequence. Input: RRIRQRPPRLPRPRPRPVHFPRP
Solution: -0.00916

Exercise: Returns the measured shrunken log2 fold change for the input sequence. Input: RRIRTRPPRLPRPRPRPIQHPRP
Solution: -0.403

Exercise: Returns the measured shrunken log2 fold change for the input sequence. Input: RRIRIRPPRLPRPRPRPIVMPRP
Solution: -0.0726

Exercise: Returns the measured shrunken log2 fold change for the input sequence. Input: RRIRVRPPRLPRPRPRPKHNPRP
Solution: -0.292

Exercise: Returns the measured shrunken log2 fold change for the input sequence. Input: RRIRDRPPRLPRPRPRPARNPRP
Solution: 0.316

Exercise: Returns the measured shrunken log2 fold change for the input sequence. Input: RRIRKRPPRLPRPRPRPWFGPRP
Solution: 0.0558

Exercise: Returns the measured shrunken log2 fold change for the input sequence. Input: RRIRKRPPRLPRPRPRPTNVPRP
Solution: 0.221

Exercise: Returns the measured shrunken log2 fold change for the input sequence. Input: RRIRLRPPRLPRPRPRPVSTPRP
Solution: 0.255

Exercise: Returns the measured shrunken log2 fold change for the input sequence. Input: RRIRWRPPRLPRPRPRPRRCPRP
Solution: 0.224

Exercise: Returns the measured shrunken log2 fold change for the input sequence. Input: RRIRRRPPRLPRPRPRPGFWPRP
Solution: 0.333

Exercise: Returns the measured shrunken log2 fold change for the input sequence. Input: RRIRSRPPRLPRPRPRPLVVPRP
Solution: 0.268

Exercise: Returns the measured shrunken log2 fold change for the input sequence. Input: RRIRNRPPRLPRPRPRPETKPRP
Solution: 0.384

Exercise: Returns the measured shrunken log2 fold change for the input sequence. Input: RRIRRRPPRLPRPRPRPIYDPRP
Solution: -0.0515
